assay: Clinical pharmacokinetics, 25 and 75 mg, compared to Adderall XR and Dexedrine Spansule; details: human, in vivo, po, 75 mg, L-lysine-d-amphetamine intact conjugate concentration, oral 75 mg L-lysine-d-amphetamine, 10 h, individual subjects

Compound | concentration at 10 h [ng/mL]
CC(Cc1ccccc1)NC(=O)C(N)CCCCN (stereo not shown) | 0

###

assay: Clinical pharmacokinetics, 25 and 75 mg, compared to Adderall XR and Dexedrine Spansule; settings: human, in vivo, po, 25 mg, L-lysine-d-amphetamine intact conjugate AUCinf, oral 25 mg L-lysine-d-amphetamine, mean

Molecule | Measurement unit | AUC(0-inf)
CC(Cc1ccccc1)NC(=O)C(N)CCCCN [L-lysine-d-amphetamine] | ng·h/mL | 13.5

###

assay: Clinical pharmacokinetics, 25 and 75 mg, compared to Adderall XR and Dexedrine Spansule; conditions: human, in vivo, po, 25 mg, L-lysine-d-amphetamine intact conjugate concentration, oral 25 mg L-lysine-d-amphetamine, 6 h, mean

Compound | Measurement unit | concentration at 6 h
CC(Cc1ccccc1)NC(=O)C(N)CCCCN (stereo not shown) | ng/mL | 0

###

assay: Clinical pharmacokinetics, 25 and 75 mg, compared to Adderall XR and Dexedrine Spansule; settings: human, in vivo, po, 75 mg, L-lysine-d-amphetamine intact conjugate concentration, oral 75 mg L-lysine-d-amphetamine, 16 h, individual subjects

Compound | concentration at 16 h, µg/mL
CC(Cc1ccccc1)NC(=O)C(N)CCCCN (stereo not shown) | 0

###

assay: Clinical steady-state pharmacokinetics, 70 mg capsules once daily for 7 days, healthy adults, fasting; settings: human, in vivo, 70 mg, AUC0-t of intact L-lysine-d-amphetamine, steady state, 70 mg once daily for 7 days, healthy adults, fasting, mean n = 11
Property label: AUC(0-t) (ng·h/mL)

Compound | Measurement unit | Test result
CC(Cc1ccccc1)NC(=O)C(N)CCCCN (stereo not shown) | ng·h/mL | 59.4

###

experiment: Clinical pharmacokinetics, 25 and 75 mg, compared to Adderall XR and Dexedrine Spansule; details: human, in vivo, po, 25 mg, L-lysine-d-amphetamine intact conjugate concentration, oral 25 mg L-lysine-d-amphetamine, 12 h, mean

Molecule | Measurement unit | concentration at 12 h
CC(Cc1ccccc1)NC(=O)C(N)CCCCN (stereo not shown) | ng/mL | 0

###

experiment: Clinical pharmacokinetics, 25 and 75 mg, compared to Adderall XR and Dexedrine Spansule; details: human, in vivo, po, 75 mg, L-lysine-d-amphetamine intact conjugate Tmax, oral 75 mg L-lysine-d-amphetamine, individual subjects
Property label: Tmax (h)

Compound | Property label | Test result
CC(Cc1ccccc1)NC(=O)C(N)CCCCN [L-lysine-d-amphetamine] | Tmax | 1

###

experiment: Clinical pharmacokinetics, 25 and 75 mg, compared to Adderall XR and Dexedrine Spansule; conditions: human, in vivo, po, 75 mg, L-lysine-d-amphetamine intact conjugate concentration, oral 75 mg L-lysine-d-amphetamine, 5 h, individual subjects

Molecule | concentration at 5 h [ng/mL]
CC(Cc1ccccc1)NC(=O)C(N)CCCCN (stereo not shown) | 0

###

assay: Clinical pharmacokinetics, 25 and 75 mg, compared to Adderall XR and Dexedrine Spansule; conditions: human, in vivo, po, 25 mg, L-lysine-d-amphetamine intact conjugate concentration, oral 25 mg L-lysine-d-amphetamine, 48 h, individual subjects

Compound | concentration at 48 h (µg/mL)
CC(Cc1ccccc1)NC(=O)C(N)CCCCN (stereo not shown) | 0

###

test: Clinical pharmacokinetics, 25 and 75 mg, compared to Adderall XR and Dexedrine Spansule; conditions: human, in vivo, po, 25 mg, L-lysine-d-amphetamine intact conjugate concentration, oral 25 mg L-lysine-d-amphetamine, 7 h, individual subjects

Compound | Measurement unit | concentration at 7 h
CC(Cc1ccccc1)NC(=O)C(N)CCCCN [L-lysine-d-amphetamine] | ng/mL | 0

###

assay: Oral bioavailability at escalating doses (LC/MS/MS); settings: rat, in vivo, po, 60 mg/kg
Property label: AUC(0-inf) (ng·h/mL)

Compound | Property label | Test result
CC(Cc1ccccc1)NC(=O)C(N)CCCCN [L-lysine-d-amphetamine] | AUC(0-inf) | 8460

###

assay: Clinical pharmacokinetics, 25 and 75 mg, compared to Adderall XR and Dexedrine Spansule; conditions: human, in vivo, po, 25 mg, L-lysine-d-amphetamine intact conjugate concentration, oral 25 mg L-lysine-d-amphetamine, 8 h, individual subjects

Molecule | concentration at 8 h / ng/mL
CC(Cc1ccccc1)NC(=O)C(N)CCCCN (stereo not shown) | 0

###

experiment: Clinical pharmacokinetics, 25 and 75 mg, compared to Adderall XR and Dexedrine Spansule; details: human, in vivo, po, 25 mg, L-lysine-d-amphetamine intact conjugate concentration, oral 25 mg L-lysine-d-amphetamine, 10 h, mean

Compound | Measurement unit | concentration at 10 h
CC(Cc1ccccc1)NC(=O)C(N)CCCCN (stereo not shown) | ng/mL | 0

###

Assay: Clinical steady-state pharmacokinetics, 70 mg capsules once daily for 7 days, healthy adults, fasting
Settings: human, in vivo, 70 mg
Experimental: Patients fasted for at least 10 hours before and 4 hours after final dosing. Venous blood samples (7 mL) were drawn into EDTA vacutainers both before medication dosing on days 0, 1, 6, and 7 (in the morning) and at 16 time points (hours 0.5, 1, 1.5, 2, 3, 4, 5, 6, 7, 8, 10, 12, 16, 24, 48, and 72) after final dosing on day 7. Immediately after sample collection, vacutainer tubes were centrifuged at 3000 rpm at 4° C. for 10 minutes; within 1 hour of collection, they were stored at −20° C.

Compound | Cmax, ng/mL
CC(Cc1ccccc1)NC(=O)C(N)CCCCN [L-lysine-d-amphetamine] | 47.9

###

assay: Oral bioavailability of peptide amphetamine conjugates (HCl salts, ELISA); details: rats
A collection of molecules and their measured Percent AUC (bioavailability relative to Amphetamine)
Property label: Percent AUC (bioavailability relative to Amphetamine) (%)

Molecule | Measurement unit | Test result
[2H]N[C@@H](CC(C)C)C(=O)NC(C)Cc1ccccc1 (stereo partly drawn) [L-Amp] | % | 65
CC(Cc1ccccc1)NC(=O)C1CCCN1C(=O)C1CCCN1 (centres unmarked) [PP-Amp] | % | 61
[2H]N(C(=O)[C@@H](N)Cc1ccccc1)[C@@H](Cc1ccccc1)C(=O)NC(C)Cc1ccccc1 (some centres unmarked) [FF-Amp] | % | 27
[2H]N(CC(=O)NC(C)Cc1ccccc1)C(=O)[C@@H](N)CCCCN (some centres unmarked) [KG-Amp] | % | 69
[2H]OC(=O)CC[C@H](NC(=O)[C@@H](N)CC(C)C)C(=O)NC(C)Cc1ccccc1 (some centres unmarked) [LE-Amp] | % | 40

###

assay: Oral bioavailability of peptide amphetamine conjugates (HCl salts, ELISA); settings: rats
Hi, to clarify the labels: 1.0 covers Percent AUC (bioavailability relative to Amphetamine) from 20% upward, 0.0 covers anything below 20%.

Compound | Answer label
[2H]N(CC(=O)NC(C)Cc1ccccc1)C(=O)CN (centres unmarked) | 1.0
[2H]N1CCC[C@H]1C(=O)NC(C)Cc1ccccc1 (some centres unmarked) | 0.0
[2H]N(C(=O)[C@H](CCC(=O)O)NC(=O)[C@@H](N)CCC(=O)O)[C@@H](Cc1ccccc1)C(=O)NC(C)Cc1ccccc1 (some centres unmarked) | 1.0
[2H]N[C@@H](Cc1c[nH]cn1)C(=O)NC(C)Cc1ccccc1 (some centres unmarked) | 0.0
[2H]N[C@@H](Cc1ccc(O)cc1)C(=O)NC(C)Cc1ccccc1 (some centres unmarked) | 1.0
CC(Cc1ccccc1)NC(=O)CN (centres unmarked) | 1.0
[2H]OC(=O)CC[C@H](NC(=O)[C@@H](N)CCC(=O)O)C(=O)NC(C)Cc1ccccc1 (some centres unmarked) | 1.0
[2H]N[C@H](C(=O)NC(C)Cc1ccccc1)[C@@H](C)CC (some centres unmarked) | 1.0
[2H]OC(=O)CC[C@H](N)C(=O)NC(C)Cc1ccccc1 (some centres unmarked) | 1.0
[2H]OC(=O)CC[C@H](NC(=O)[C@H](CCC(=O)O)NC(=O)[C@@H](N)CCC(=O)O)C(=O)NC(C)Cc1ccccc1 (some centres unmarked) | 1.0
CC(Cc1ccccc1)NC(=O)C(O)C(O)C(O)C(O)CO (centres unmarked) [Gulonate-Amp] | 0.0

###

Test: Pharmacokinetics in male beagle dogs after oral or 30-min intravenous administration, 1 mg/kg (LC/MS/MS)
Type: in vivo
Details: male, beagle, dog, plasma, iv, 1 mg/kg, 30 min iv, 1 mg/kg d-amphetamine base, individual dogs, read-out: Vss of L-lysine-d-amphetamine
Protocol: This was a non-randomized, two-treatment crossover study. All animals were maintained on their normal diet and were fasted overnight prior to each dose administration. L-lysine-d-amphetamine dose was based on the body weight measured on the morning of each dosing day. […] Microsoft Excel (Version 6, Microsoft Corp., Redmond, Wash.) was used for calculation of mean plasma concentration and graphing of the plasma concentration-time data. […] Half-life was calculated as ln 2/λz. […]

Compound | Vd
CC(Cc1ccccc1)NC(=O)C(N)CCCCN [L-lysine-d-amphetamine] | 0.807 L/kg

###

experiment: Clinical pharmacokinetics, 25 and 75 mg, compared to Adderall XR and Dexedrine Spansule; conditions: human, in vivo, po, 75 mg, L-lysine-d-amphetamine intact conjugate concentration, oral 75 mg L-lysine-d-amphetamine, 10 h, mean
Property label: concentration at 10 h (ng/mL)

Compound | Property label | Test result
CC(Cc1ccccc1)NC(=O)C(N)CCCCN (stereo not shown) | concentration at 10 h | 0
